# Protocol Notes: recombinant barcode read abundance after kanamycin selection (control-corrected) (log10(CPM+1)); higher = more efficient recombination; sequences stand for … in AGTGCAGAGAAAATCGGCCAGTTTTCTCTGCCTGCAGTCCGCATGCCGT…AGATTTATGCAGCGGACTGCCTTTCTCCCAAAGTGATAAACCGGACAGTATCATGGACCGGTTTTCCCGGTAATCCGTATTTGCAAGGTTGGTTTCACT; site = the 11-nt target
Outcome Measure: recombinant barcode read abundance (log10)
Respond numerically, and do not add a unit to the figure.

{"Sequence String": "CACCTTCCTTGGGTTCTAACCTGTTGCAT (site CACATACCTAT)", "Measured Number": 0.196}
{"Sequence String": "CTTGCATCTTGGGTTCTAACCTGTTGCCT (site CTTGCATCTAG)", "Measured Number": 0.383}
{"Sequence String": "TCGTGCGCTTGGGTTCTAACCTGTTGCCT (site TCGTGCGCTAG)", "Measured Number": 0.0883}
{"Sequence String": "GTACAAGCTTGGGTTCTAACCTGTTGCCT (site AGGAGTCCTCT)", "Measured Number": 0.102}
{"Sequence String": "TTGGTCACTTGGGTTCTAACCTGTTGCCT (site TTGGGCACTAG)", "Measured Number": 0.205}

The reported recombinant barcode read abundance (log10) of the sequence ATGATTCCTTGGGTTCTAACCTGTTGCCT (site AGGATTCCTAG) was 0.0244

Looking up CGACACTCTTGGGTTCTAACCTGTTGCCT (site CAACACTCTAG) , I see its recombinant barcode read abundance (log10) listed as 0.107

Documented recombinant barcode read abundance (log10) of CTAGGATCTTGGGTTCTAACCTGTTGCCA (site CTAGGATCTAT) : 0.844

# recombinant barcode read abundance (log10) (sequence: ATAGGTCCTTGGGTTCTAACCTGTTGCTG (site ATGGGTCCTCG) ) is 0.0247

###

# Protocol Notes: recombinant UMI read abundance after kanamycin selection (control-corrected) (log10(CPM+1)); higher = more efficient recombination; extreme values may be limits of the assay; sequences stand for … in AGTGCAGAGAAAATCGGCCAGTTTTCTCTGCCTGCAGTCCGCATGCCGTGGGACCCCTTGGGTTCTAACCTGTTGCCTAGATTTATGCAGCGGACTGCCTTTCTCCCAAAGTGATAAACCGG…AGGTTGGTTTCACT; site = the 11-nt donor
Outcome Measure: recombinant UMI read abundance (log10)
Write the number on its own, no unit after it.

Sample answers from the record:
{"Sequence String": "TGGCAAGCATGGACCGGTTTTCCCGGTAATCCGTATTTGTC (site TGGCAAGCTGA)", "recombinant UMI read abundance (log10)": 0}
{"Sequence String": "CGACCAACATGGACCGGTTTTCCCGGTAATCCGTATTTGCT (site CGACCAACTAG)", "recombinant UMI read abundance (log10)": 2.28}
{"Sequence String": "ACTATGCCATGGACCGGTTTTCCCGGTAATCCGTATTTGTC (site ACTATGCCTGA)", "recombinant UMI read abundance (log10)": 0}
{"Sequence String": "GCTGCAGCATGGACCGGTTTTCCCGGTAATCCGTATTTGTC (site GCTGCAGCTGA)", "recombinant UMI read abundance (log10)": 2.59}
{"Sequence String": "GTTGGAACATGGACCGGTTTTCCCGGTAATCCGTATTTGGC (site GTTTGAACTGC)", "recombinant UMI read abundance (log10)": 0}

Record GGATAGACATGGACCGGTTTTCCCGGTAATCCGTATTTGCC (site GGATAGACTAG) . Reported recombinant UMI read abundance (log10): 0.852

Record CTTAGATCATGGACCGGTTTTCCCGGTAATCCGTATTTGGG (site CTTAGATCTCC) . Reported recombinant UMI read abundance (log10): 0.475

The reported value for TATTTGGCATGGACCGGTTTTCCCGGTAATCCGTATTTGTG (site TATTTGGCTAA) in terms of recombinant UMI read abundance (log10) is 0.0123

Record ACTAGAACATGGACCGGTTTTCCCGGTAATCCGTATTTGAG (site ACTAGAACTGT) . Reported recombinant UMI read abundance (log10): 0
